experiment: survival rescue of mitochondrial mutant cells in low glucose, primary screen, MELAS cybrids, Rieske KO mouse fibroblasts, CellTiter-Glo (AID 1508586); conditions: Rieske KO mouse fibroblast survival, CellTiter-Glo 72 h;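 further: z relative to plate mean and SD of compound and empty wells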
Reported endpoint: z-score

compound="CC1CC[C@@]2(OC1)O[C@H]1C[C@H]3[C@@H]4CC=C5CC(O[C@@H]6OC(CO)C(O[C@@H]7OC(C)C(O)C(O)C7O)C(O)C6O[C@@H]6OC(C)C(O)C(O)C6O)CC[C@]5(C)[C@@H]4CC[C@]3(C)[C@@H]1C2C (stereo not given in full)" reported_endpoint=z-score recorded_result=-1.08
compound="COc1ccc(OC)c(C(O)C(C)N)c1 (stereo not given)" reported_endpoint=z-score recorded_result=0.108
compound=COc1cc(OC)c(OC)cc1C=O reported_endpoint=z-score recorded_result=0.673
compound="O=c1ccc2cc(OC3OC(CO)C(O)C(O)C3O)c(O)cc2o1 (stereo not given)" reported_endpoint=z-score recorded_result=0.0251
compound=O=[N+]([O-])C=Cc1ccc2c(c1)OCO2 reported_endpoint=z-score recorded_result=-0.259
compound=Oc1ccc2c3c1O[C@H]1c4oc5ccccc5c4C[C@@]4(O)[C@@H](C2)N(CC2CC2)CC[C@]314 reported_endpoint=z-score recorded_result=0.281
compound=CCN(CC)C(=O)c1ccc(C2=CC3(CCNCC3)Oc3cccc(O)c32)cc1 reported_endpoint=z-score recorded_result=0.582
compound=CN[C@@H]1C[C@@H](c2ccc(Cl)c(Cl)c2)c2ccccc21 reported_endpoint=z-score recorded_result=-1.03
compound=Oc1ccc2c3c1O[C@H]1c4[nH]c5ccccc5c4C[C@@]4(O)[C@@H](C2)N(CC2CC2)CC[C@]314 reported_endpoint=z-score recorded_result=0.662
compound=CCN1CCN(C(=O)Cc2ccc(Nc3ncc(F)c(Nc4ccc(C(=O)Nc5ccccc5Cl)cc4)n3)cc2)CC1 reported_endpoint=z-score recorded_result=-1.29

###

experiment: suppressors of polyQ aggregation in yeast, 75Q-TubU reporter (AID 1593); conditions: Yeast 75Q polyglutamine aggregation reporter
Reported endpoint: score

compound=c1ccc2c(c1)sc1ccccc12 recorded_result=-0.17
compound=COc1ccc2c(c1OC)C(=O)O[C@H]2[C@H]1c2cc3c(cc2CCN1C)OCO3 recorded_result=1.46
compound="C=CCC1(C(C)CCC)C(=O)N=C(S)NC1=O (configuration not stated)" recorded_result=1.49
compound="CC(N)Cc1ccc2c(c1)OCO2 (configuration not stated)" recorded_result=1.01
compound="Clc1ccc(CSC(Cn2ccnc2)c2ccc(Cl)cc2Cl)cc1 (configuration not stated)" recorded_result=0.02
compound=O=[N+]([O-])c1cc([As](=O)(O)O)ccc1O recorded_result=1.17
compound="CC(Cc1ccc(O)cc1)NCC(O)c1cc(O)cc(O)c1 (configuration not stated)" recorded_result=1.05
compound="C#CC1(O)CCC2C3CCC4=CC(=O)CCC4(C)C3CCC21C (configuration not stated)" recorded_result=0.22
compound=Nc1ccncc1 recorded_result=1.34
compound="CCCCCc1cc(O)c2c(c1)OC(C)(C)C1CCC(C)=CC21 (configuration not stated)" recorded_result=-0.54
compound="CCNC(C)Cc1cccc(C(F)(F)F)c1 (configuration not stated)" recorded_result=1.17
compound="CNc1ccc2oc(C[C@@H]3OC4(CC[C@@H]3C)O[C@H](C(C)C(=O)c3ccc[nH]3)[C@H](C)C[C@H]4C)nc2c1C(=O)O (some centres not stated)" recorded_result=-0.79

###

assay: ICB984 medulloblastoma cell growth inhibition, synergistic combos for chromothripsis tumors, cisplatin or BGB combos (AID 1671451); details: ICB984 medulloblastoma cells, drug combinations, BGB IC20 combo, at 0.005 µM, stronger effect = higher value;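 further: cells exposed for 96 hours before readout; 0% = vehicle DMSO and 100% = killing by high DMSO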
Reported endpoint: inhibition (%)

compound=O=P(O)(NCCCl)NCCCl unit_tag=% recorded_result=-17.4
compound=Cc1c2ccncc2c(C)c2c1[nH]c1ccccc12 unit_tag=% recorded_result=64.1
compound="O=c1[nH]c(=O)n(C2OC(CO)C(O)C2O)cc1F (centres undefined)" unit_tag=% recorded_result=26.6
compound="COc1cc(C2c3cc4c(cc3C(O)C3COC(=O)C23)OCO4)cc(OC)c1OC (centres undefined)" unit_tag=% recorded_result=44.2
compound="NC(Cc1ccc(N(CCCl)CCCl)cc1)C(=O)O (centres undefined)" unit_tag=% recorded_result=-15.2
compound=O=C(O)CCCc1ccc(N(CCCl)CCCl)cc1 unit_tag=% recorded_result=-3.85
compound=O=C1CCC[C@@H]2[C@H]3CCCN4CCC[C@@H](CN12)[C@@H]34 unit_tag=% recorded_result=5.19
compound=Cn1c(CCCC(=O)O)nc2cc(N(CCCl)CCCl)ccc21 unit_tag=% recorded_result=6.09
compound=Cn1c(COP(=O)(NCCBr)NCCBr)cnc1[N+](=O)[O-] unit_tag=% recorded_result=-13.2

###

Each record here notes measured viability.
assay: liver-stage malaria parasite growth inhibition, primary screen, cell-based, HepG2, luciferase luminescence, HepG2 viability (AID 624349);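 further: 100% = mean of DMSO negative control wells on the same plate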; settings: P. berghei liver stage in HepG2, luciferase luminescence, concentration not given here; measured here: HepG2 viability without parasites
Reported endpoint: viability (%)

compound="[N-]=[N+]=CC(=O)OCC(N)C(=O)O (stereo not given)" unit_tag=% recorded_result=82.2
compound="CC12CCC(=O)C=C1CCC1C2CCC2(C)C(O)CCC12 (stereo not given)" unit_tag=% recorded_result=100
compound="C[C@]12CCC3C(CC[C@H]4CC(=O)CC[C@]34C)C1CCC2=O (stereo not given in full)" unit_tag=% recorded_result=96.1
compound=COc1cc(OC)c(OC)cc1C=O unit_tag=% recorded_result=91.7
compound=COc1cc2c3cc1Oc1c(OC)c(OC)cc4c1[C@@H](Cc1cccc(c1)Oc1ccc(c(O)c1)C[C@@H]3N(C)CC2)N(C)CC4 unit_tag=% recorded_result=67.7
compound=C[C@@H](N)[C@@H](O)c1ccccc1 unit_tag=% recorded_result=110
compound="C[C@]12CC3SC3C[C@@H]1CC[C@@H]1[C@@H]2CC[C@]2(C)[C@@H](O)CC[C@@H]12 (stereo not given in full)" unit_tag=% recorded_result=72.9
compound="CCC(C)C(=O)O[C@H]1[C@H](O)C2C(CN3CC(C)CCC3[C@@]2(C)O)C2C[C@]34O[C@]5(O)C(OC(=O)C(C)(O)C(C)O)CC[C@@]3(C)C5C(OC(C)=O)[C@@H](OC(C)=O)C4[C@@]21O (stereo not given in full)" unit_tag=% recorded_result=68.5
compound="C[C@@H]1CC[C@@]2(NC1)O[C@H]1C[C@H]3C4CC=C5C[C@@H](O)CC[C@]5(C)C4CC[C@]3(C)C1[C@@H]2C (stereo not given in full)" unit_tag=% recorded_result=93.1
compound=CN=C1CN(O)C(c2ccccc2)=c2cc(Cl)ccc2=N1 unit_tag=% recorded_result=68.2

###

test: survival rescue of mitochondrial mutant cells in low glucose, primary screen, MELAS cybrids, Rieske KO mouse fibroblasts, CellTiter-Glo (AID 1508586); conditions: Rieske KO mouse fibroblast survival, CellTiter-Glo 72 h;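 further: z relative to plate mean and SD of compound and empty wells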
Reported endpoint: z-score

compound=CC(=O)Nc1ccc(Cc2ccc(NC(C)=O)cc2)cc1 recorded_result=0.257
compound="CC(C)NCC(O)c1ccc(N)c(C#N)c1 (stereo not given)" recorded_result=1.18
compound="CC1C=CC=CCCC=CC=CC=CC=CC(OC2OC(C)C(O)C(N)C2O)CC2O[C@@](O)(CC(O)C(O)CCC(O)CC(O)CC(O)CC(=O)OC(C)C(C)C1O)CC(O)C2C(=O)O (stereo not given in full)" recorded_result=0.415
compound=C[C@]12CC(=CO)C(=O)C[C@@H]1CC[C@@H]1[C@@H]2CC[C@@]2(C)[C@H]1CC[C@]2(C)O recorded_result=0.741
compound=C=C1C[C@@H]2[C@H](CC[C@]3(C)C(=O)CC[C@@H]23)[C@@]2(C)C=CC(=O)C=C12 recorded_result=0.0493
compound=CN[C@@H]1[C@@H](O)[C@@H](O[C@@H]2[C@@H](O)[C@H](O[C@H]3O[C@H]([C@@H](C)NC)CC[C@H]3N)[C@@H](N)C[C@H]2N)OC[C@]1(C)O recorded_result=0.179
compound="CCC(=O)OC(Cc1ccccc1)(c1ccccc1)C(C)CN(C)C (stereo not given)" recorded_result=-0.451
compound=CC[C@@H](CO)NC(=O)[C@@H]1C=C2c3cccc4c3c(cn4C)C[C@H]2N(C)C1 recorded_result=-1.27
compound=COc1ccc2c(c1)[nH]c1c(C)nccc12 recorded_result=1.34
compound="c1cc2c(cc1C1OC[C@H]3C(c4ccc5c(c4)OCO5)OC[C@H]13)OCO2 (stereo not given in full)" recorded_result=0.747
compound=O=S(=O)(F)Cc1ccccc1 recorded_result=0.553
compound="COC1CCC(OC2C[C@H]([C@]3(C)CC[C@]4(CC(O)C(C)[C@@H](C(C)C=C(C)C(=O)C(C)CC(C)C(=O)O)O4)O3)O[C@]3(O[C@@H]([C@H]4O[C@@](O)(CO)C(C)CC4C)CC3C)C2C)OC1C (stereo not given in full)" recorded_result=-2.77
compound=Oc1cc(Cl)ccc1Oc1ccc(Cl)cc1Cl recorded_result=-0.145
compound=COc1ccc(C(=O)c2c(C)n(CCN3CCOCC3)c3ccccc23)cc1 recorded_result=0.082
compound="CCC(C(N)=O)N1CCCC1=O (stereo not given)" recorded_result=0.478
compound=CC1(C)CC(O)CC(C)(C)N1O recorded_result=-0.223
compound=CC(C)(C)c1cc(C=C(C#N)C#N)cc(C(C)(C)C)c1O recorded_result=-0.362
compound=S=C(NC1CCCCC1)N1CCC(c2cnc[nH]2)CC1 recorded_result=0.478
compound=O=c1[nH]oc2c1CCNC2 recorded_result=-0.393
compound=O=C(O)c1nn(Cc2ccc(Cl)cc2Cl)c2ccccc12 recorded_result=-0.0829
